Test system: MS2 coat protein
run description: apparent KD of MS2 coat protein, switch ON state; designed switch direction (-1 OFF switch, 1 ON switch): -1; higher = weaker reporter binding
measurement context: FMN input: 0 or 200 uM; Eterna round: R93 (includes R88 designs)
quantity kind: apparent KD of MS2 coat protein (nM)

# query sequence, study system, reading
records = [
    ("AGUAGUACAGGAUAUACAUGAGGAUCACCCAUGUGAAAAUUAAGUGGCGUACCACAAAGUAGAAGGGUACUACA [Mat - Exclusion 3 - JL mod - D36]", "MS2 coat protein", 31),
    ("UUUCACCUAGGAUAUACAUGAGGAUCACCCAUGUGAGGCGAAGGACGGAGGGAUGGUAGUAGAAGGAGGACAAG [Mod of Gedier]", "MS2 coat protein", 19.5),
    ("AAAAAGUGAGGAUAUACAGAUAAAAAAACGAAAAAAAAUCUGUAGAAGGCACAUGAGGAUCACCCAUGUAAAAA [Ex 4 May 3]", "MS2 coat protein", 43.4),
    ("AAAAAAGGAGGAUAUACAUGAGGAUCACCCAUGUAAAAAGGGAAAAAAAAAAAAAAAAGUAGAAGGCCUAAAAA [JR_Exc003_Sub1701]", "MS2 coat protein", 41.7),
    ("GAAAAGCAAGGAUAUACAUGAGGAUCACCCAUGUAACCUGAAAGCAUGAUCGGUGACAGUAGAAGGUGCGAAAU [Tixegerice]", "MS2 coat protein", 22.3),
    ("AAGGGACAUGAGGAUCACCCAUGUCAGGAUAUGAUGCGAAUAAAGAAAGAAUAAAGCAUCAGAAGGGACACCAA [Mat - Exclusion 1 - Eli mod - D64]", "MS2 coat protein", 23),
    ("GUGUACAGAGGAUAUAUAUGAGCUAGGAAACUAGCAACUUCACAUGAGGAUCACCCAUGUAGAAGGCUGUACAC [Ex2: 720]", "MS2 coat protein", 14.1),
    ("AAAAAGGCAGGAUAUACAAAACAGGGAAACCUGAAAGGGAAACAUGAGGAUCACCCAUGUAGAAGGGCCAAGAA [Clint Eastwood 64% 1]", "MS2 coat protein", 37.3),
    ("AAAAAGAUAGGAUAUACGAACAUGUCGAAAGACGUGAAGGGACAUGAGGAUCACCCAUGUAGAAGGGUUAAAAA [Mat - Exclusion 2 - JL mod - D88]", "MS2 coat protein", 149),
    ("AAGAAGUGAGGAUAUACGCGAACAAAAAAAAAAAAGAAAGCGUAGAAGGCACAUGAGGAUCACCCAUGUCAAAA [Alfred Victor Espinas]", "MS2 coat protein", 30.1),
    ("AAUAAACAUGAGGAUCACCCAUGUAAGGAUAUCGAAAAAAAAAUAAACAAAAAAAAAACGAGAAGGUACAAAAA [Exclusion 1 design 2]", "MS2 coat protein", 24.1),
    ("AAAUAGUUAGGAUAUACAUGAGGAUCACCCAUGUGCACGUAUGGAGAAUAUGGUGGUGGUAGAAGGGACUAAAA [EX2 Malc#20]", "MS2 coat protein", 55.5),
    ("AAAAAACAUGAGGAUCACCCAUGUAAGGAUAUGCUAAAAAACGCAAAAAAAGCGAAUAGCAGAAGGUACAAAAA [66%, Wbt, 29]", "MS2 coat protein", 19.4),
]
